system: mammalian cells; experiment: Arrayed SSAP library screening, cell viability by live cell counts via flow cytometry; assay type: cell-based
Reported Cell Viability (Average, two targets) values for the following molecules.

| MOLECULE | Cell Viability (Average, two targets) |
| --- | --- |
| SSAP_15: SEQ ID NO: 184 (protein) AKNELAKGSYLTDLQKLDGNTLRDFVDPKHQASPQELQALLAIVKGRNLNPFTKEVYFIKYGSAPAQIVVSKEAIMKRAEENPDFDGFEAGIVVETKDGAIERLTGTIVPKSATLRGGWCKVYRKDRSHAIEADADFAYYTTSKNLWQKMPALMIRKVAIVSAFREAFSESVGGLYTADEMQRETQAEVRARKMKEAYEEKLYLLTQMEAKSYKKTKSKNENEAKKTKEAEAIETVEEPTQDGNLEW | 1.226 |
| SSAP_305: SEQ ID NO: 474 in b312 (Table 9 prints 424); Clostridium akagii (protein, listed as Clostridium akagii) ATSESLKNQLVNKETRPPKDPFKALVYSAGIKKRFEDMLDKQANGFITSLLNLKQDKLKSCDDFTVLGSALKAAALKLPIDPNLGFAWIIPFKNHGKLEAQFQIGYKGFIQMAQRSGQYKKLNVTEIYEGQLKSFNPLTEEIVLDLDNIKSDLRKINKRYLIVMRMNLLALHLRKISKG | 0.5578 |
| SSAP_12: SEQ ID NO: 181 (protein) STALATLAGKLAERVGMDSVDPQELITTLRQTAFKGDASDAQFIALLIVANQYGLNPWTKEIYAFPDKQNGIVPVVGVDGWSRIINENQQFDGMDFEQDNESCTCRIYRKDRNHPICVTEWMDECRREPFKTREGREITGPWQSHPKRMLRHKAMIQCARLAFGFAGIYDKDEAERIVENTAYTAERQPERDITPVNDETMQEINTLLIALDKTWDDDLLPLCSQIFRRDIRASSELTQAEAVKALGFLKQKASEQKVAA | 1.291 |
